- System: adherent cells or suspension cells
- experiment.notes: Hoechst 33342 nuclear staining (fraction of apoptotic nuclei)
- Assay type: cell-based
- Design: key: 0 relating to no activity; 1 relating to weak activity comprising less than 70% of the cells; score 2 relating to strong activity comprising more than 70% of the cells
- assay.context: HeLa, conc 1 μm
endpoint.label: Hoechst 33342 nuclear staining score

## Task Report Hoechst 33342 nuclear staining score for Nc1nonc1-c1nc2ccccc2n1CC(=NO)c1ccccc1 (mixture of isomers) [Example 17] tested on adherent cells or suspension cells.
## Result 0

====

Measured Hoechst 33342 nuclear staining score accompanies every entry in the list below.
- Test system: adherent cells or suspension cells
- experiment.notes: Hoechst 33342 nuclear staining (fraction of apoptotic nuclei)
- Type: cell-based
- Parameters: key: 0 relating to no activity; 1 relating to weak activity comprising less than 70% of the cells; score 2 relating to strong activity comprising more than 70% of the cells
- assay.context: HeLa, conc 0.01 μm
# answer = number (no unit)

Examples with answers:
COc1cccc(C(Cn2c(-c3nonc3N)nc3ccccc32)=NO)c1 (mixture of isomers) [Example 24]: 0
Nc1nonc1-c1nc2ccccc2n1COc1ccc(Cl)c(Cl)c1 [Example 92]: 0
Nc1nonc1-c1nc2ccccc2n1COc1ccc(F)cc1 [Example 8]: 0
Nc1nonc1-c1nc2ccccc2n1COc1ccccc1 [Example 7]: 0

## Task // query Hoechst 33342 nuclear staining score value for entry Nc1nonc1-c1nc2ccccc2n1CC(=NO)c1ccccc1Cl (mixture of isomers) [Example 33]
## Result 0

## Task Return reported Hoechst 33342 nuclear staining score; argument: Nc1ccc(C(=O)Cn2c(-c3nonc3N)nc3ccccc32)cc1[N+](=O)[O-] [Example 65]
## Result 0
